Entry source: the supplement of paper PMC9170038

# Test system: MS2 coat protein
# run_description: apparent KD of MS2 coat protein; designed switch direction (-1 OFF switch, 1 ON switch): 1; higher = weaker reporter binding
# particulars: input ligand: FMN 200 uM
quantity_measured: apparent KD of MS2 coat protein (nM)
A number alone suffices; assume nM.

INSERT INTO assay_data (biosequence, quantity_measured, result) VALUES
  ('UGGCUGGUGAUAGGAUAUACAUGAGGAAUCCUCGUAGAAGGAUCACGACAUGAGGAUCACCCAUGUAGCCGUCCGUAGACGGCU [salish99_SSNG1_r04_005] (Eterna round: R96, puzzle: Same State NG 1)', 'apparent KD of MS2 coat protein', 493),
  ('AGGCUCAGACUAGGAUAUAUGCGAUCACAUGAGGAUCACCCAUGUCUCGAGCUUCGGCUCGAGGCAUAGAAGGAGUCUGAGCCA [SSNG2/4-D1] (Eterna round: R96, puzzle: Same State NG 2)', 'apparent KD of MS2 coat protein', 17.1),
  ('AAAAGACAUGAGGAUCACCCAUGUCAAGACGUGGGAGGAUAUGCAUGGAAAACAUGCUGUGCAGAAGGCCCGUGUC [SS1 - 20] (Eterna round: R96, puzzle: Same State 1)', 'apparent KD of MS2 coat protein', 16.2),
  ('AAAAUAUAAAGAGAGGAUAUCCAAAGAACCACAUGAGGAUCACCCAUGUAAAGAAAGAAUAAGUGGGAGAAGGCUCAAAUAAUAA [Designing denovo 24] (Eterna round: R96, puzzle: Same State 2)', 'apparent KD of MS2 coat protein', 24.8),
  ('AUAAGUUUGAUGCUCGUCUCUUCGUACAGACAUGAGGAUCACCCAUGUAGUCGGGAAGUAGCCCGGCCAGUAUGACC [Usraisqu] (Eterna round: R96, puzzle: Sensor for hsa-mir-208a)', 'apparent KD of MS2 coat protein', 285),
  ('CUGAGCAAUCAAGGAUAUCACGUCGAUUAGACGUGAGAAGGUGAUCAUAACAUGAGGAUCACCCAUGUAUUACAUGGAGCUCAG [Brourd''s SSNG1/1-A2 mod 1] (Eterna round: R96, puzzle: Same State NG 1)', 'apparent KD of MS2 coat protein', 533),
  ('ACUCUCACAGUAGGAUAUGUAGGAUAUGCCUACAUGAGGAUCACCCAUGUAAACAUGGCAGAAGGAUAGAAGGACUGACAUGGG [pwkr ssNG2 2FMN + 1F5.3] (Eterna round: R96, puzzle: Same State NG 2)', 'apparent KD of MS2 coat protein', 274),
  ('GGAGCCGGCCUAGGAUAUUUCAUAAGAAAACAUGAGGAUCACCCAUGUAGGCCAGAAGGCCUUGGGAAGAAGGAGGUCGGCUCC [Loop Effect - G26] (Eterna round: R96, puzzle: Same State NG 2)', 'apparent KD of MS2 coat protein', 11.2);

Any idea what its apparent KD of MS2 coat protein is? The sequence is GGUCGAAACCACAUGAGGAUCACCCAUGUUCCGGAAACGGCGCAGGAUAUCUGUCCGAAAAGGUCAGAGAAGGGUGAAACGACC [Fiskers NG3ss - 79] (Eterna round: R96, puzzle: Same State NG 3)
546
